- Test system: DU-145
- Assay Protocol: NCI tumour cell line growth inhibition, 48 h
Active and inactive are the calls of the source. Rule as the data show it: active = GI50 up to about 1.1 µM and inactive = higher.
Allowed answers: 1.0 = active, 0.0 = inactive

# count of solved cases: 4
CCOC(=O)c1ccc(NC(NC(=O)CC)(C(F)(F)F)C(F)(F)F)cc1 ... 0.0
O=C(Nn1c(-c2ccccc2)nc2ccccc2c1=O)c1cccc([N+](=O)[O-])c1 ... 0.0
CC(=O)ON(C(C)=O)c1ccc(-c2nc3ccccc3s2)cc1 ... 0.0
O=C(/C=C/c1ccc(Cl)c(Cl)c1)Oc1ccc(/C=C2\CCCCC2=O)cc1 ... 0.0

Let's switch to this compound now.
Data request: Please state the recorded outcome for this compound: COc1ccc(CC2C(=O)NC(C)C(=O)N(C)C3Cc4ccc(cc4)Oc4cc(ccc4O)CC(C(=O)NC(C)C(=O)NC(C)C(=O)N2C)N(C)C3=O)cc1 (stereo not given)
Data returned: 1.0

Hello, the source for this data is ChEMBL document CHEMBL1201862, in case you need it.
